Reference source for all entries: PubChem BioAssay

- ASSAY_COMMENT: OD615 S. cerevisiae growth inhibition, permissive medium, pilot counter-assay, permissive growth control for S. cerevisiae lifespan shortening project (AID 705)
- REPORTED_CONDITIONS: OD615, 24 h, at 10 µM, hits give high values
READOUT_NAME: growth inhibition (%)
One number for each entry, in %.

O=C(Nc1c(F)c(F)c(F)c(F)c1F)C1CCCCC1 :: -1.42
CCCC(=O)Nc1ccc(N2CCCCC2)cc1 :: -9.5
CCOC(=O)c1cccc(NC(=O)CCS(=O)(=O)c2cccc3nsnc23)c1 :: -0.82
CC(CCc1ccccc1)NC(=O)C1CCN(C(=O)c2sccc2-n2cccc2)CC1 (centres undefined) :: -4.79
COc1ccc(S(=O)(=O)N2CCCC2C(=O)Nc2ccc(C(C)=O)cc2)cc1 (centres undefined) :: -19.4

Give measured growth inhibition for every item shown.
1. CSc1oc(-c2ccc(F)cc2)nc1S(=O)(=O)c1ccccc1
2. Cc1ccc(CCN2C(=O)CCC2(C)C(=O)NC2CCCC2)cc1 (centres undefined)
3. O=S(=O)(c1ccccc1)n1ccc2ccccc21
4. Cc1nn(Cc2c(Cl)cccc2Cl)c(C)c1NC(=O)c1cc(C(C)C)on1
5. O=C(Nc1nccs1)c1cccc(S(=O)(=O)N2CCOCC2)c1

-2.16
-7.04
-3
-10.6
-19.2

Give measured growth inhibition for every item shown.
1. CCOc1ccccc1C1C(C(=O)Nc2ccccc2OC)=C(C)Nc2nc(CCCO)nn21 (centres undefined)
2. COc1cc(N)ccc1Cc1ccc(N)cc1OC
3. CCN(CC)S(=O)(=O)c1cc(C(=O)Nc2ccc(Cl)cn2)ccc1C
4. CCn1c2ccccc2c2cc(NC(=O)C3CCN(S(=O)(=O)c4cccs4)CC3)ccc21

1. -20.1
2. -5.34
3. -5.56
4. -8.9

Give measured growth inhibition for every item shown.
1. Nc1c(Br)cc(Br)c(N2CCCC2=O)c1Br
2. C=CCSC1=N/C(=C\c2ccsc2)C(=O)S1
3. Cn1c(C(=O)NC2CCCCC2)cc2c(=O)n(C)c3ccccc3c21
4. O=C(O)c1n[nH]c2ccccc12
5. COc1ccccc1N(CC(N)=O)S(=O)(=O)c1ccc(C)cc1
6. Clc1ccccc1OCCN1CCCCC1
7. O=C(CCn1c(=O)oc2ccccc21)N1CCN(c2ccc(F)cc2)CC1

1: -6.31; 2: 7.03; 3: -10.6; 4: -1.77; 5: 0.675; 6: -14.4; 7: 2.05

Give measured growth inhibition for every item shown.
1. COc1ccc(-n2c(Cn3c(=O)sc4ccccc43)nnc2SCC(=O)N2CCOCC2)cc1
2. CC(C)CC1(C(=O)O)NC(c2ccccc2O)C2C(=O)N(C(C)C)C(=O)C21 (centres undefined)
3. O=C1c2ccccc2C(Nc2cccnc2)N1Cc1ccc2c(c1)OCO2 (centres undefined)

1: -0.33; 2: 3.45; 3: 7.46

###

- ASSAY_COMMENT: Restrictive medium S. cerevisiae growth inhibition, OD615, pilot screen of yeast lifespan reduction project, restrictive growth control (AID 706);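 note: modified DeaD lifespan yeast strain shifted to restrictive glucose medium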
- REPORTED_CONDITIONS: OD615, 48 h, at 10 µM, hits give high values
I'd appreciate it if you could supply growth inhibition values for the items below.
One number for each entry, in %.

Examples from the recorded data:
COc1ccc(C(=O)OCCN2C(=O)c3ccccc3C2=O)cc1 :: -5.23
N#CC1=C(O)CCCn2c1nc1ccccc1c2=O :: -18
CCOCCCNC(=O)C(NC(=O)c1ccc2c(c1)OCO2)c1ccc(OC)cc1 (stereo unspecified) :: -24.3
Cn1c(NC(=O)CC2CCCCC2)cc(=O)n(C)c1=O :: -21.6
Cc1cc(NS(=O)(=O)c2ccccc2)c(C)c(Cl)c1O :: -15.3

Give measured growth inhibition for every item shown.
1. COc1ccc(NC(=O)C2=C(C)NC(=O)NC2c2cccc(OC)c2OC)c(OC)c1 (stereo unspecified)
2. CC(=O)N1C(C(=O)O)CSC1c1ccc(C)cc1 (stereo unspecified)
3. Cn1c(=O)oc2cc(S(=O)(=O)NC3CCCc4ccccc43)ccc21 (stereo unspecified)
4. O=C(CCc1nc2ccccc2[nH]1)NCc1ccc2c(c1)OCO2
5. COc1cc(C(=O)Nc2nnc(C)s2)cc(OC)c1OC
6. COc1ccc(C(=O)NCC(c2cccnc2)N2CCN(c3ccccc3OC)CC2)cc1OC (stereo unspecified)
7. Cc1ccc(-c2nc(CS(=O)CC(=O)NCCCN3CC(C)CC(C)C3)c(C)o2)cc1 (stereo unspecified)
8. CCOCCn1c(CN2CCC(C)CC2)nc2c1c(=O)n(C)c(=O)n2C

1: -22.3; 2: 8.76; 3: -11.4; 4: -4.06; 5: -5.23; 6: -2.41; 7: -13.2; 8: -2.44
